src = PubChem BioAssay (NCI)

# Tested on: NCI-H522 lung
# method.description: NCI-60 one-dose screen, 48 h
# condition.context: 10 µM unless noted
Compounds without any hit were thinned out: in the full panel of roughly 83,000, 20% have a hit. Active and inactive are the calls of the source. The calls were made as follows: active = growth percent below 10; inactive = the rest.
Hello, when you answer, please use one of the following outcomes: true (active), false (inactive)

molecule	assigned.category
C=C1CC[C@@H]2[C@]3(C)COC(c4cn[nH]c4-c4ccccc4)O[C@@H]3CC[C@@]2(C)[C@@H]1C/C=C1/C(=O)OCC1O (stereo partly drawn)	true

Asked: Hello, I am checking results. What call was entered for COc1ccc2[nH]cc(-c3cc(N)n4nc(-c5cn(C)c6ccccc56)cc4n3)c2c1 ?
Given back: true

Asked: Hello, I am checking results. What call was entered for CN1CCN(c2ccc3c(c2)nc(NNC(=O)c2ncccn2)c2cccn23)CC1 ?
Given back: true

Asked: Hello, I am checking results. What call was entered for Cn1cc(-c2cc3nc(-c4cn(C)c5ncc(Br)cc45)cc(N)n3n2)c2cc(Cl)ccc21 ?
Given back: true

Asked: Hello, I am checking results. What call was entered for CCN1CCN(Cc2ccc(C(=O)Nc3cccc(C#Cc4cccc5[nH]nc(N)c45)c3)cc2C(F)(F)F)CC1 ?
Given back: true

Asked: Hello, I am checking results. What call was entered for Clc1cccc(Cl)c1/C=C/c1cc(/C=C/c2ccc(Br)cc2)c2ccccc2n1 ?
Given back: false

Asked: Hello, I am checking results. What call was entered for CC(C)c1ccc2c(N)c(C(=O)Nc3ccc(C(F)(F)F)cn3)sc2n1 ?
Given back: false

Asked: Hello, I am checking results. What call was entered for COc1ccc(C(=O)/C=C/c2cc3c(cc2Br)OCO3)cc1S(N)(=O)=O ?
Given back: true

Asked: Hello, I am checking results. What call was entered for COc1ccc2[nH]c(=O)c(CSc3nccc(-c4ccc(OC)c(OC)c4)n3)cc2c1 ?
Given back: true

Asked: Hello, I am checking results. What call was entered for CC(C)CCNC(=O)N/C(N)=N/c1nc2ccccc2s1 ?
Given back: false

Asked: Hello, I am checking results. What call was entered for COc1cc(NC(=O)c2cccc(C3CCc4c(cc(OC)c(OC)c4OC)O3)c2)cc(OC)c1OC (stereo not drawn) ?
Given back: true

Asked: Hello, I am checking results. What call was entered for O=[N+]([O-])c1ccc(/C=C/c2nc3ccccc3n3c(=S)[nH]nc23)cc1 ?
Given back: false

Asked: Hello, I am checking results. What call was entered for COc1ccc(NC(=O)[C@@H](N)Cc2ccccc2)cc1C(=O)Nc1cccc(C2CC(=O)c3c(cc(OC)c(OC)c3OC)O2)c1 (stereo partly drawn) ?
Given back: false

====

# Test system: K-562 leukemia
# method.description: NCI-60 one-dose screen, 48 h (100 = growth as untreated, 0 = no growth, -100 = all killed)
# condition.context: 10 µM unless noted
About 83,000 compounds went through this panel and 20% of them were active in at least one assay; those are over-represented in the sample as a whole.
Please mark criterion met if the recorded growth is equal to or greater than 20%, and criterion not met if it falls below.

molecule	assigned.category
N=C1N=C(SCc2nc3ccccc3[nH]2)NC(=O)/C1=C/c1ccc(Cl)cc1	criterion met
CC1(C)CC[C@]2(C(=O)Nc3ccc(Br)cc3)CC[C@]3(C)C(=CCC4[C@@]5(C)C[C@@H](O)[C@H](O)[C@@](C)(CO)C5CC[C@]43C)C2C1 (some centres not stated)	criterion not met
C=C1CC[C@@H]2[C@]3(C)COC(c4ccco4)O[C@@H]3CC[C@@]2(C)[C@@H]1C/C=C1/C(=O)OCC1OC(C)=O (some centres not stated)	criterion not met
CC(=O)OC[C@@]1(C)C2CC[C@]3(C)C(CC=C4C5CC(C)(C)CC[C@]5(C(=O)Nc5ccc(F)cc5)CC[C@]43C)[C@@]2(C)C[C@@H](OC(C)=O)[C@@H]1OC(C)=O (some centres not stated)	criterion met

Asked: Kindly determine if growth recorded for CCN(CC)c1ccc(/C=N/Nc2nc(-c3ccc(C)cc3)cs2)c(O)c1 is above or exactly 20%.
Given back: criterion met

Asked: Kindly determine if growth recorded for C=C1CC[C@@H]2[C@]3(C)COC(c4cn[nH]c4-c4cccc(Br)c4)O[C@@H]3CC[C@@]2(C)[C@@H]1C/C=C1/C(=O)OCC1O (some centres not stated) is above or exactly 20%.
Given back: criterion not met

Asked: Kindly determine if growth recorded for COc1ccc2c(c1)c(-c1cc(N)n3nc(-c4cn(C)c5ccccc45)cc3n1)cn2C is above or exactly 20%.
Given back: criterion not met
